- Test system: P12-Ichikawa
- Test summary: cell viability relative to DMSO control; higher = less cytotoxic
- Test settings: RPMI 5 mM glucose + 10% dialyzed FBS; 48 h; 0.19 µM
Test readout: cell viability

> print(dat)
                               input.smiles   system.name    test.readout  result
1  O=C1c2c(O)ccc(O)c2C(=O)c2c(NCCNCCO)ccc(NCCNCCO)c21  P12-Ichikawa  cell viability    102%
2  N=C(NCCCCCCNC(=N)NC(=N)Nc1ccc(Cl)cc1)NC(=N)Nc1ccc(Cl)cc1  P12-Ichikawa  cell viability   95.5%
3  COc1ccc(-c2nc(N3CCOCC3)c3sc(CN(C)c4ncc(C(=O)NO)cn4)cc3n2)cn1  P12-Ichikawa  cell viability   8.35%
4  Cc1cn(-c2cc(NC(=O)c3ccc(C)c(Nc4nccc(-c5cccnc5)n4)c3)cc(C(F)(F)F)c2)cn1  P12-Ichikawa  cell viability    113%
5        Cc1cc(C(C)(C)C)c(O)c(C)c1CC1=NCCN1  P12-Ichikawa  cell viability    104%
6  FC(F)c1nc2ccccc2n1-c1nc(N2CCOCC2)nc(N2CCOCC2)n1  P12-Ichikawa  cell viability   92.6%
7  O=C(c1ccc(Nc2nccc(-c3cc4ccccc4s3)n2)cc1)N1CCC(N2CCCC2)CC1  P12-Ichikawa  cell viability    106%
8  OC1=CC2=C(C(=C1)O)C(=O)\C=C(/O2)C3=CC=CC=C3  P12-Ichikawa  cell viability    100%
9  COc1cc2ncnc(Nc3cc(Br)c(O)c(Br)c3)c2cc1OC  P12-Ichikawa  cell viability    114%

###

- Test system: P12-Ichikawa
- Test summary: cell viability relative to DMSO control; higher = less cytotoxic
- Test settings: RPMI 5 mM glucose + 10% dialyzed FBS; 48 h; 0.00234 µM
Test readout: cell viability (%)

> print(dat)
                                input.smiles  result
 1  FC1=CC=C(SC/2=N/N3\C=N/C(=O)/C(=C3/C=C2)C4=C(Cl)C=CC=C4Cl)C(=C1)F     104
 2  C\C1=C(\C=C(C#N)/C(=O)N1)C2=C[N]3C=CN=C3C=C2    72.9
 3  CC(C)C(=O)Oc1ccc(CO)cc1[C@H](CCN(C(C)C)C(C)C)c1ccccc1    76.3
 4  CC/1=C(/N2[C@H](SC1)[C@H](NC(=O)[C@H](N)\C3=C\C\C=C/C3)C2=O)C(O)=O     112
 5     CCN1\C=C(\C(O)=O)C(=O)C2=CC=C(C)N=C12    90.6
 6  CN1CCN(c2ccc([N+](=O)[O-])c3no[n+]([O-])c23)CC1    91.9
 7  O=C(O[C@H]1C[C@H]2CC[C@@H](C1)[N+]21CCCC1)C(O)(c1ccccc1)c1ccccc1.[Cl-]    99.9
 8  N[C@H](CSC(c1ccccc1)(c1ccccc1)c1ccccc1)C(=O)O     116
 9  CN1C[C@H]2c3ccccc3Oc3ccc(Cl)cc3[C@@H]2C1    89.7
10  COc1cc2ncnc(Nc3cc(Br)c(O)c(Br)c3)c2cc1OC     104
11      C\C1=C(\C=C(\C#N)C(=O)N1)C2=CC=NC=C2     105
